- method notes: Pharmacokinetics of acetate of Compound 22 in SD rats with single and repeated administration
- Assay type: in vivo
- study conditions: both sexes, Sprague-Dawley, rat, plasma, po, 63 mg/kg, Group 5 PO 63 mg/kg repeated, Day 1, Overall, read-out: AUC0-t
quantity kind: AUC(0-t) (µg·h/mL)
The answer is to be given in µg·h/mL; state only the numeric part.

Provide one value: measured AUC(0-t) of CC(=O)O.Nc1nc(NCCc2ccc(NC3COC3)cc2)nc2nc(-c3ccco3)nn12 [Acetate of Compound 22]
111

----------
- method notes: Solubility in biological vehicles (SGF, FaSSIF, FeSSIF) at 37° C., HPLC
- Format: physicochemical
- study conditions: fed state simulated intestinal fluid (FeSSIF), 37 °C, fessif, thermodynamic from solid, 0.5 h
Give solubility at 0.5 h for every item shown.
Show the value, then the unit it is measured in.

Provide one value: measured solubility at 0.5 h of "Nc1nc(NCCc2ccc(NC3COC3)cc2)nc2nc(-c3ccco3)nn12"
0.007 mg/mL

Provide one value: measured solubility at 0.5 h of CC(=O)O.Nc1nc(NCCc2ccc(NC3COC3)cc2)nc2nc(-c3ccco3)nn12 [Acetate of Compound 22]
0.0331 mg/mL

----------
- method notes: Pharmacokinetics of Compounds 27, 16, 14 and 22 in SD rats
- Format: in vivo
- study conditions: Sprague-Dawley, rat, in vivo, IV, dose 1 (mg/kg), read-out: Cl—pred (converted)
quantity kind: clearance (mL/min/kg)
The answer is to be given in mL/min/kg; state only the numeric part.

Provide one value: measured clearance of COCCNc1ccc(CCNc2nc(N)n3nc(-c4ccco4)nc3n2)cc1 [Compound 27]
36

Provide one value: measured clearance of Nc1nc(NCCc2ccc(OCCN3CCC(F)(F)C3)cc2)nc2nc(-c3ccco3)nn12 [Compound 14]
24.7

Provide one value: measured clearance of Nc1nc(NCCc2ccc(OCCN3CC[C@H](F)C3)cc2)nc2nc(-c3ccco3)nn12 [Compound 16]
31.5

Provide one value: measured clearance of Nc1nc(NCCc2ccc(NC3COC3)cc2)nc2nc(-c3ccco3)nn12 [Compound 22]
9.5

----------
- method notes: Pharmacokinetic evaluation of Compound 22 in female BALB/c mice in different vehicles
- Format: in vivo
- study conditions: mouse, plasma, po, 100 mg/kg, 100 mg/kg p.o. single, Group 1, vehicle 40% PEG400/60% water
quantity kind: AUC(0-inf) (ng·h/mL)
The answer is to be given in ng·h/mL; state only the numeric part.

Provide one value: measured AUC(0-inf) of "Nc1nc(NCCc2ccc(NC3COC3)cc2)nc2nc(-c3ccco3)nn12"
16100

----------
- tgt: adenosine receptors A2A (Homo sapiens, UniProt P29274)
- Sequence (P29274 whole entry): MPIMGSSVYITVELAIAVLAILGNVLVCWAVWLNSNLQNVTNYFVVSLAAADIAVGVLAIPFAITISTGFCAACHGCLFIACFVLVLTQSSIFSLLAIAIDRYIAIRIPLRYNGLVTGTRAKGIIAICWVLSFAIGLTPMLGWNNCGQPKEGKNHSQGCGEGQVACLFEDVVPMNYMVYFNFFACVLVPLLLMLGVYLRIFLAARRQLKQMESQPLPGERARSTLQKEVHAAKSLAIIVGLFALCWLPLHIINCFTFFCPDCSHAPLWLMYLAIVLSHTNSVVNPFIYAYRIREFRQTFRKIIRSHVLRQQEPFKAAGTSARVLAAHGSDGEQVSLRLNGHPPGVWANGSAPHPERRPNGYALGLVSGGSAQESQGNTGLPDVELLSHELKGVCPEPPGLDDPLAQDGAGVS
- method notes: TR-FRET-based cAMP accumulation assay in hADORA2A-HEK293 cells
- study conditions: NECA at EC80, hADORA2A-HEK293, read-out: A2AR activity (IC50)
quantity kind: pIC50
// scale note: pIC50 = -log10(conc_M); give the bare number

Provide one value: measured pIC50 of "COCC(COC)Nc1ccc(CCNc2nc(N)n3nc(-c4ccco4)nc3n2)cc1"
8.31

Provide one value: measured pIC50 of "COCCn1nnc(-c2ccc(CCNc3nc(N)n4nc(-c5ccco5)nc4n3)cc2)n1"
7.86

Provide one value: measured pIC50 of "Nc1nc(NCCc2ccc(NC3COC3)cc2)nc2nc(-c3ccco3)nn12"
8.15

Provide one value: measured pIC50 of "COCCN(CCOC)c1ccc(CCNc2nc(N)n3nc(-c4ccco4)nc3n2)cc1"
8.79

Provide one value: measured pIC50 of "COCCOCCNc1ccc(CCNc2nc(N)n3nc(-c4ccco4)nc3n2)cc1"
8.17

Provide one value: measured pIC50 of "Nc1nc(NCCc2ccc(NC3CCOCC3)cc2)nc2nc(-c3ccco3)nn12"
8.42

Provide one value: measured pIC50 of "Cn1nnc(-c2ccc(CCNc3nc(N)n4nc(-c5ccco5)nc4n3)cc2)n1"
8.02

Provide one value: measured pIC50 of "CN(C)C(=O)c1ccc(CCNc2nc(N)n3nc(-c4ccco4)nc3n2)cc1"
8.06

----------
- method notes: Pharmacokinetics of acetate of Compound 22 in SD rats with single and repeated administration
- Assay type: in vivo
- study conditions: male, Sprague-Dawley, rat, plasma, po, 189 mg/kg, Group 4 PO 189 mg/kg single, Male, read-out: Cmax
quantity kind: Cmax (ng/mL)
The answer is to be given in ng/mL; state only the numeric part.

Provide one value: measured Cmax of CC(=O)O.Nc1nc(NCCc2ccc(NC3COC3)cc2)nc2nc(-c3ccco3)nn12 [Acetate of Compound 22]
44100
